measured.on: isolated bladder muscle of BOO model rat
procedure.text: Effect of various drugs on α1 receptor stimulation-induced contraction of isolated bladder muscle of bladder outlet obstruction (BOO) model rat
test.conditions: phenylephrine 3 μmol/L; concentration inhibiting the average tension by 50%; cumulative treatment, 3 concentrations, 30 min intervals; read-out: Inhibitory effect on phenylephrine-induced contraction IC50 (average method)
observable: pIC50
Numbers only, as −log10 of the molar value.

Exercise: Consider the compound `C[C@H](CN1CCN(c2cc(F)c(F)cc2F)CC1)N1C(=O)CC2(CCCC2)CC1=O` and give its measured pIC50.
Solution: 6.44
